All values here come from patent US20220144922A1.

Quick list: Kd per entry.
STUDY SYSTEM: T1, prefusion-stabilized RSV F ectodomain (DS-Cav1), subtype B (respiratory syncytial virus subtype B)
T1 construct: extracellular domain; also called Prefusion subtype B
MEASUREMENT DESCRIPTION: BLI, IgG on sensor

[
  {
    "BINDER": "ADI-15635 (antibody, V domains shown, IgG; also called Antibody Number 200) VH: EVQLLESGGGLVKPGGSLRLSCAASGFTISGYNMFWVRQPPGKGLEWVSSITAGSSYLNYADSVKGRFIVSRDNAKNSLYLQMNSLRAEDTAVYFCARAPLLPAMMDLWGQGTTVTVSS VL: QSVLTQPPSVSGAPGQRVTISCTGSSSNIGAGYDVHWYQQLPGTAPKLLIYTNNNRPSGVPDRFSGSKSGTSASLAITGLQAEDEADYYCQSYDRSLNGYVFGTGTKVTVL",
    "Kd": "0.431 nM"
  },
  {
    "BINDER": "ADI-15564 (antibody, V domains shown, IgG) VH: QVQLVQSGAEVKKPGSSVKVSCKASGDTFNSYSISWVRQAPGQGLEWMGGILPMFGSSDYAQKFQGRLTITADESTRTAYMELNSLTSEDTAIYYCARDNYYVWTGRYPEFDFWGQGTLVTVSS VL: EIVLTQSPGTLSLSPGDEATLSCRASQSVTSNYLAWYQQRPGQAPRLLISGASRRATAVPDRFSGSGSGTDFTLTISRLEPEDFAVYYCQQYGSTPITFGQGTRLEIK",
    "Kd": "0.64 nM"
  },
  {
    "BINDER": "ADI-15566 (antibody, V domains shown, IgG) VH: QVQLVQSGAEVKKPGASVKVSCKASGFTFTNYGISWVRQAPGRGLEWMGWISAYNGNTEYAQKLQDRLTMTTDTSTNTAYMELRSLRSDDTALYYCARESGVAAAATLLYWGQGTLVTVSS VL: ETTLTQSPLSLPVTLGQPASISCRSSQSLVYSDGNTYLSWFQQRPGQSPRRLIYKVSNRDSGVPDRFSGSGSGADFTLKISRVEAEDVGVYYCMQGIYWPRTFGQGTKVDIK",
    "Kd": "0.264 nM"
  }
]
